Taken from ChEMBL document CHEMBL4627254.

test system: MV4-11; test: Antiproliferative activity against human MV4-11 cells; type: functional, cell-based
pIC50: −log10 of the molar value.
MEASUREMENT_KIND: pIC50

Some compounds with known pIC50 results, for comparison:
>>> df
                         structure_notation  experimental_system  numeric_result
0  CCN(c1cc(-c2ccc(CN3CCOCC3)cc2)cc(C(=O)NCc2c(C)cc(C)[nH]c2=O)c1C)C1CCOCC1               MV4-11            4.65
1  CCN(c1cc(/C=C/c2ccc(CN3CCC4(CC3)OCCO4)cc2)cc(C(=O)NCc2c(C)c3c([nH]c2=O)CCCC3)c1C)C1CCOCC1               MV4-11            5.41
2  CCN(c1cc(/C=C/c2cccc(CN3CCOCC3)c2)cc(C(=O)NCc2c3c(c(C)[nH]c2=O)CCCC3)c1C)C1CCOCC1               MV4-11            5.35

a. CCN(c1cc(/C=C/c2ccc(CN3C[C@@H](C)O[C@@H](C)C3)c(F)c2)cc(C(=O)NCc2c(C)c3c([nH]c2=O)CCCC3)c1C)C1CCOCC1
b. CCN(c1cc(/C=C/c2ccc(CN3C[C@@H](C)O[C@@H](C)C3)c(F)c2)cc(C(=O)NCc2c3c(c(C)[nH]c2=O)CCCC3)c1C)C1CCOCC1
Hello, I am sorting some records. Could you say if a or b has the smaller pIC50 value? To answer, give the label that identifies your chosen option.
a
(a: 4.92, b: 5.36)

P. CCN(c1cc(/C=C/c2ccc3c(c2)NC(=O)CO3)cc(C(=O)NCc2c(C)c3c([nH]c2=O)CCCC3)c1C)C1CCOCC1
Q. CCN(c1cc(/C=C/c2ccc(CN3CCC4(CC3)OCCO4)cc2)cc(C(=O)NCc2c3c(c(C)[nH]c2=O)CCCC3)c1C)C1CCOCC1
R. CCN(c1cc(/C=C/c2ccc(CN3C[C@@H]4C[C@H]3CO4)c(F)c2)cc(C(=O)NCc2c3c(c(C)[nH]c2=O)CCCC3)c1C)C1CCOCC1
Please order the records by their reported pIC50, lowest number first. Hello, could you send the labels back in the order asked? Thank you.
R, P, Q

A. CCN(c1cc(/C=C/c2cccc(CN(C)C)c2)cc(C(=O)NCc2c(C)c3c([nH]c2=O)CCCC3)c1C)C1CCOCC1
B. CCN(c1cc(/C=C/c2ccc(CN3CCOCC3)cc2)cc(C(=O)NCc2c3c(c(C)[nH]c2=O)CCCC3)c1C)C1CCOCC1
Which of the two gives a bigger number for pIC50: A or B ? To answer, give the label that identifies your chosen option.
A
